Where do these numbers come from? They come from PubChem BioAssay (NCI).

Task for the reader: assign each of the following compounds its reported TGI.
Test system: T-47D breast
Test: NCI tumour cell line growth inhibition, 48 h
Where a SMILES comes first, the peptide text is derived from it. [ ]: non-standard residue; d: D form. The star is where a group is joined. ξ: configuration not given here. NMeY = CN[C@@H](Cc1ccc(O)cc1)C(=O)O; Cbz = O=C(OCc1ccccc1)*; ξA = CC(N)C(=O)O

Examples from the recorded data:
INSERT INTO results (compound, property_measured, endpoint_result) VALUES
  ('Cc1ccc(Nc2nc(=O)[nH]c(=O)[nH]2)cc1N', 'TGI', '> 100 µM'),
  ('CCCC/C(=N\N=C(N)N)c1ccc(F)cc1', 'TGI', '15.6 µM'),
  ('CCCCC[C@H](O)[C@H](C)C=C1SCCCS1', 'TGI', '> 100 µM'),
  ('COc1ccc(C[C@@H](C(=O)NCC(N)=O)N(C)C(=O)[C@@H]2CCCN2C(=O)[C@H](CC(C)C)NC(=O)C(C)NC(=O)OCc2ccccc2)cc1 (stereo not given in full) (Cbz-[ξA]LP[NMeY](Me)G-NH2)', 'TGI', '> 100 µM'),
  ('COc1ccc(CNc2nc(NCc3ccc(OC)cc3)nc(NC3CCCCC3)n2)cc1', 'TGI', '> 100 µM');

I'm hoping you can list TGI for every compound here, please.
1. O=C1c2cc([N+](=O)[O-])ccc2NC2C(O)c3ccccc3N12 (stereo not given)
2. O=C1CCSSCCC(=O)Nc2ccccc2N1
3. N#Cc1c(N)c(-c2ccc(Cl)cc2)c(F)c2ccccc12
4. C=C[C@]1(C)CC[C@]2(C)C(CC[C@@]3(C)C2C[C@H](O)[C@H](O)[C@@]3(C)O)C1 (stereo not given in full)
5. NC(Cc1nn[nH]n1)C(=O)O (stereo not given)

1: 49.6 µM; 2: > 100 µM; 3: > 100 µM; 4: > 100 µM; 5: > 100 µM

----------
Tested on: NCI-H522 lung
Test: NCI tumour cell line growth inhibition, 48 h
Decide using TGI: a value greater than or equal to 30 µM is yes (1), a smaller one is no (0).

Worked cases, answers included:
INSERT INTO measurements (compound, subject_of_test, assigned_class) VALUES
  ('CC1Cc2c(N(C)C)ncnc2N(C)c2ccc(Cl)cc21 (stereo unspecified)', 'NCI-H522 lung', 'yes (1)'),
  ('Cn1c(N)c(/C=N/NC(=O)CC#N)c(=O)n(C)c1=O', 'NCI-H522 lung', 'yes (1)'),
  ('C=CCc1c(O)c2ccccc2[nH]c1=O', 'NCI-H522 lung', 'yes (1)'),
  ('O=C(CCCCCCCCCCc1ccccc1)c1c(O)cccc1O', 'NCI-H522 lung', 'yes (1)'),
  ('CN1CCCC1c1cccnc1.O=C(O)c1ccccc1O.O=C([O-])c1ccccc1[OH2+].O=C([O-])c1ccccc1[OH2+].O=C([O-])c1ccccc1[OH2+].[Mn+2] (stereo unspecified)', 'NCI-H522 lung', 'no (0)'),
  ('C=C[C@]1(C)CC[C@]2(C)C(CC[C@@]3(C)C2C[C@H](O)[C@H](O)[C@@]3(C)O)C1 (stereo partly specified)', 'NCI-H522 lung', 'yes (1)'),
  ('CC1CCC(O)C(C(O)CC2CC(=O)N(C)C(=O)C2)C1 (stereo unspecified)', 'NCI-H522 lung', 'yes (1)'),
  ('COc1cn2c(cc1=O)COc1ccc(-c3ccccc3)cc1-2', 'NCI-H522 lung', 'yes (1)');

As a next step, examine the compound that follows.
Could you verify whether the entry COc1ccc(C2CC(c3c(C)nn(-c4ccccc4)c3-c3ccc(C)cc3O)=NN2c2ccccc2)cc1 (stereo unspecified) shows TGI of no less than 30 µM? yes (1)

----------
System: RXF-631 renal
Test: NCI tumour cell line growth inhibition, 48 h
Please respond with reported TGI for every item in the list.

Solved entries (count: 5):
INSERT INTO results (compound, subject_of_test, property_measured, endpoint_result) VALUES
  ('Cc1cc(N(CCC#N)S(=O)(=O)c2ccccc2)ccc1C=O', 'RXF-631 renal', 'TGI', '> 100 µM'),
  ('Cc1cc(NS(=O)(=O)c2ccc(Nc3c4ccccc4nc4c(C(=O)NCCN(C)C)ccc(Cl)c34)cc2)no1', 'RXF-631 renal', 'TGI', '20.9 µM'),
  ('CC(C)OP(=O)(CP(=O)(OC(C)C)OC(C)C)OC(C)C.[CH3][Sn]([Br])([Br])[Br]', 'RXF-631 renal', 'TGI', '> 100 µM'),
  ('Cn1c(=O)c2c3oc(=O)cc(O)c3c(=O)n3c4ccccc4n(c1=O)c23', 'RXF-631 renal', 'TGI', '> 100 µM'),
  ('COC(=O)/C(=N\NC(=O)c1ccccc1O)C(C#N)c1ccc(Cl)cc1 (stereo unspecified)', 'RXF-631 renal', 'TGI', '> 100 µM');

Now take the following compound into account.
Recorded TGI for S=C(Nc1ccccc1)Nc1[nH]c(=S)sc1-c1nc2ccccc2[nH]1 on RXF-631 renal was > 100 µM

----------
Test system: SNB-75 CNS
Assay: NCI tumour cell line growth inhibition, 48 h; in the data active means GI50 below about 0.43 µM; inactive means the rest
API: response.call in active, inactive

For this molecule, state the assay outcome: CC[C@]12C=CCN3CC[C@]4(C(=C(C(=O)OC)C1)Nc1cc(O)ccc14)[C@@H]32 inactive

Identify the outcome logged in this assay for the molecule shown: CCN(CC)CCC(=O)Nc1ccc(Cn2nnc3c2C(=O)c2nnn(Cc4ccc(NC(=O)CCN(CC)CC)cc4)c2C3=O)cc1 active

So what was the verdict on c1ccc2c(c1)nc(NCCN1CCNCC1)c1c3ccccc3[nH]c21 in this test? inactive

----------
System: HCT-116 colon
Assay: NCI tumour cell line growth inhibition, 48 h
property measured: TGI

INSERT INTO results (compound, subject_of_test, endpoint_result) VALUES
  ('COc1cc2ccn3c4cc(OC)c(OC)cc4cc3c2cc1OC', 'HCT-116 colon', '> 100 µM'),
  ('c1ccc2c3c(ccc2c1)CSCc1ccc2ccccc2c1-3', 'HCT-116 colon', '> 100 µM'),
  ('Cc1nn(-c2ccccc2)c2c1C1C(=C(c3ccc(Cl)cc3)N2)C(=O)Nc2ccccc21 (stereo not drawn)', 'HCT-116 colon', '14.4 µM'),
  ('O=C1c2cc3c(cc2CC12Cc1cc4c(cc1C2)CCC4)CCC3', 'HCT-116 colon', '> 100 µM'),
  ('Cc1cc(S(=O)(=O)Nc2n[nH]c(Nc3ccccc3)n2)c(S)cc1Cl', 'HCT-116 colon', '> 10 µM');

For each of the items listed, what is its TGI?
1. NC(Cc1nn[nH]n1)C(=O)O (stereo not drawn)
2. CCOC(=O)CCC1(C(=O)OC)CCCC1=O (stereo not drawn)
3. O=C1c2cc(Cl)ccc2-n2c(noc2=O)C2CSCN12 (stereo not drawn)
4. CCCCC[C@H](O)[C@H](C)C=C1SCCCS1
5. O=C1C=C(Nc2cccc(Br)c2)c2ccccc2C1=O
6. O=C1/C(=C/c2ccccc2S)N=C(c2ccccc2)N1c1ccc2c(c1)Sc1cc(N3C(=O)/C(=C/c4ccccc4S)N=C3c3ccccc3)ccc1N2

1: > 100 µM; 2: > 100 µM; 3: > 100 µM; 4: > 100 µM; 5: 44.5 µM; 6: 40.8 µM

Lab note: each compound below needs its TGI filled in.
1. COc1cc(C(c2cc3c(cc2O)OCO3)N2CCCC2)cc(OC)c1OC (stereo not drawn)
2. Cc1ccc(C2=Nc3c(N)ncnc3NC(c3cccc(Nc4ccnc5cc(C(F)(F)F)ccc45)c3)C2)cc1 (stereo not drawn)
3. COC(=O)Cc1c(C2=Nc3ccccc3C2(O)CC(=O)OC)[nH]c2ccccc12 (stereo not drawn)
4. COc1ccc(CNc2nc(NCc3ccc(OC)cc3)nc(NC3CCCCC3)n2)cc1
5. Cc1ccc(Nc2nc(=O)[nH]c(=O)[nH]2)cc1N
6. O=S1(=O)NNC(=NCc2ccc(F)cc2)c2ccccc21

1: 29.8 µM; 2: 10.5 µM; 3: > 100 µM; 4: 11.7 µM; 5: > 100 µM; 6: > 100 µM

Fill in TGI for each of the 2 compounds listed.
1. COc1ccc([Se]c2ccc(OC)cc2OC)c(OC)c1
2. O=c1c(Cc2ccc(Cl)cc2)nnc2sc(-c3ccc([N+](=O)[O-])cc3)nn12

1. 46.5 µM
2. 48.8 µM

Batch of 2 compounds: report TGI for each.
1. COc1cc(C2SCC(=O)N2NC(=O)c2ccc(NC(C)=O)cc2)cc(OC)c1OC (stereo not drawn)
2. CC(=O)N[C@@H](Cc1ccc(O)cn1)C(=O)NCc1ccc2c(c1)OCO2

1. > 100 µM
2. > 100 µM

Please state, for each entry, its recorded TGI.
1. COC(=O)c1cc(Nc2ccc(O)c3c2C(=O)c2c([N+](=O)[O-])ccc(O)c2C3=O)cc(C(=O)OC)c1
2. CN(C)c1ccc(C(=NNC(=O)c2cc3ccccc3[nH]2)c2ccc(N(C)C)cc2)cc1

["> 100 µM", "> 34.2 µM"]
